- Test system: HeLa Kyoto
- Assay Notes: melting temperature (median over replicates), in situ; higher = more thermally stable
- Measurement Conditions: cell cycle stage: mitosis
Below: a set of entries, each annotated with reported melting temperature.
Response body: numeric value in °C, unit text excluded.

MVGYDPKPDGRNNTKFQVAVAGSVSGLVTRALISPFDVIKIRFQLQHERLSRSDPSAKYHGILQASRQILQEEGPTAFWKGHVPAQILSIGYGAVQFLSFEMLTELVHRGSVYDAREFSVHFVCGGLAACMATLTVHPVDVLRTRFAAQGEPKVYNTLRHAVGTMYRSEGPQVFYKGLAPTLIAIFPYAGLQFSCYSSLKHLYKWAIPAEGKKNENLQNLLCGSGAGVISKTLTYPLDLFKKRLQVGGFEHARAAFGQVRRYKGLMDCAKQVLQKEGALGFFKGLSPSLLKAALSTGFMFFSYEFFCNVFHCMNRTASQR [SLC25A19]; 55.6
MERPQPDSMPQDLSEALKEATKEVHTQAENAEFMRNFQKGQVTRDGFKLVMASLYHIYVALEEEIERNKESPVFAPVYFPEELHRKAALEQDLAFWYGPRWQEVIPYTPAMQRYVKRLHEVGRTEPELLVAHAYTRYLGDLSGGQVLKKIAQKALDLPSSGEGLAFFTFPNIASATKFKQLYRSRMNSLEMTPAVRQRVIEEAKTAFLLNIQLFEELQELLTHDTKDQSPSRAPGLRQRASNKVQDSAPVETPRGKPPLNTRSQAPLLRWVLTLSFLVATVAVGLYAM [HMOX1]; 53.9

Item MSDLQAAEGPGSWSPTARPGSAGGVGDCQGVEGSQAAASENEDLENKDTSLLASATDPEPCSSPHRPQMVSPVSKDATEDLRKATGPLEAQALVKQDLLPADQAQVLNEMAKYQVPQRSGDIVMIQSEHTGAIDVLSADLESADLLGDHRKVSPPLMAPPCIWTFAKVKEFKSKLGKEKNSRLVVKRGEVVTIRVPTHPEGKRVCWEFATDDYDIGFGVYFDWTPVTSTDITVQVSDSSDDEDEEEEEEEEIEEPVPAGDVERGSRSSLRGRYGEVMPVYRRDSHRDVQAGSHDYPGEGIYLLKFDNSYSLLRNKTLYFHIYYTS [TMED8] has what recorded melting temperature? 50.3

Need melting temperature, item MGSRDHLFKVLVVGDAAVGKTSLVQRYSQDSFSKHYKSTVGVDFALKVLQWSDYEIVRLQLWDIAGQERFTSMTRLYYRDASACVIMFDVTNATTFSNSQRWKQDLDSKLTLPNGEPVPCLLLANKCDLSPWAVSRDQIDRFSKENGFTGWTETSVKENKNINEAMRVLIEKMMRNSTEDIMSLSTQGDYINLQTKSSSWSCC [RAB29] 52.9

melting temperature lookup needed for MVVLSVPAEVTVILLDIEGTTTPIAFVKDILFPYIEENVKEYLQTHWEEEECQQDVSLLRKQAEEDAHLDGAVPIPAASGNGVDDLQQMIQAVVDNVCWQMSLDRKTTALKQLQGHMWRAAFTAGRMKAEFFADVVPAVRKWREAGMKVYIYSSGSVEAQKLLFGHSTEGDILELVDGHFDTKIGHKVESESYRKIADSIGCSTNNILFLTDVTREASAAEEADVHVAVVVRPGNAGLTDDEKTYYSLITSFSELYLPSST [ENOPH1] , thanks. 50.7

* * *

- System: HeLa Kyoto
- Assay Notes: solubility in G1/S (NP-40 vs SDS abundance) (log2 ratio); higher = more soluble
- Measurement Conditions: cell cycle stage: G1/S
Readout Label: solubility in G1/S (log2)
Just the number, please, no unit attached.

Quick one: solubility in G1/S (log2) for MEGSLEREAPAGALAAVLKHSSTLPPESTQVRGYDFNRGVNYRALLEAFGTTGFQATNFGRAVQQVNAMIEKKLEPLSQDEDQHADLTQSRRPLTSCTIFLGYTSNLISSGIRETIRYLVQHNMVDVLVTTAGGVEEDLIKCLAPTYLGEFSLRGKELRENGINRIGNLLVPNENYCKFEDWLMPILDQMVMEQNTEGVKWTPSKMIARLGKEINNPESVYYWAQKNHIPVFSPALTDGSLGDMIFFHSYKNPGLVLDIVEDLRLINTQAIFAKCTGMIILGGGVVKHHIANANLMRNGADYAVYINTAQEFDGSDSGARPDEAVSWGKIRVDAQPVKVYADASLVFPLLVAETFAQKMDAFMHEKNED [DHPS] ? 0.164

Where do the numbers come from? From the supplement of paper PMC5998384.
